Origin of values: patent US9029508

# study system: T1, PlGF (human, UniProt P49763)
# T1 chain: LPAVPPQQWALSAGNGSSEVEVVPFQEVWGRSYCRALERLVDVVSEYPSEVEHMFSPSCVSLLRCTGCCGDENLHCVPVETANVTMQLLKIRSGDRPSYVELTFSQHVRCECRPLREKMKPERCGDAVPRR
# protocol summary: ELISA
Each item that follows carries a reported EC50.
Numbers only here, please. The scale is nM.

A selection of reference data follows.
[
  {
    "binder": "AB047 (antibody, V domains shown) VH: QVQLQQSGAELVKPGASVKISCKASGYTFTDYYINWVKLAPGQGLEWIGWIYPGSGNTKYNEKFKGKATLTIDTSSSTAYMQLSSLTSEDTAVYFCVRDSPFFDYWGQGTLLTVSS VL: DIVLTQSPDSLAVSLGERVTMNCKSSQSLLNSGMRKSFLAWYQQKPGQSPKLLIYWASTRESGVPDRFTGSGSGTDFTLTISSVQAEDVAVYYCKQSYHLFTFGSGTKLEIKR",
    "property label": "EC50",
    "unit of measure": "nM",
    "measured value": 0.2
  },
  {
    "binder": "DVD258 PlGF arm (antibody, V domains shown, DVD-Ig outer) VH: QVQLQQSGAELVKPGASVKISCKASGYTFTDYYINWVKLAPGQGLEWIGWIYPGSGNTKYNEKFKGKATLTIDTSSSTAYMQLSSLTSEDTAVYFCVRDSPFFDYWGQGTLLTVSS VL: DIVLTQSPDSLAVSLGERVTMNCKSSQSLLNSGMRKSFLAWYQQKPGQSPKLLIYWASTRESGVPDRFTGSGSGTDFTLTISSVQAEDVAVYYCKQSYHLFTFGSGTKLEIKR",
    "property label": "EC50",
    "unit of measure": "nM",
    "measured value": 0.08
  },
  {
    "binder": "DVD259 PlGF arm (antibody, V domains shown, DVD-Ig inner) VH: QVQLQQSGAELVKPGASVKISCKASGYTFTDYYINWVKLAPGQGLEWIGWIYPGSGNTKYNEKFKGKATLTIDTSSSTAYMQLSSLTSEDTAVYFCVRDSPFFDYWGQGTLLTVSS VL: DIVLTQSPDSLAVSLGERVTMNCKSSQSLLNSGMRKSFLAWYQQKPGQSPKLLIYWASTRESGVPDRFTGSGSGTDFTLTISSVQAEDVAVYYCKQSYHLFTFGSGTKLEIKR",
    "property label": "EC50",
    "unit of measure": "nM",
    "measured value": 1.3
  }
]

Now examine the next entry.
Memo: DVD260 PlGF arm (antibody, V domains shown, DVD-Ig outer) VH: QVQLQQSGAELVKPGASVKISCKASGYTFTDYYINWVKLAPGQGLEWIGWIYPGSGNTKYNEKFKGKATLTIDTSSSTAYMQLSSLTSEDTAVYFCVRDSPFFDYWGQGTLLTVSS VL: DIVLTQSPDSLAVSLGERVTMNCKSSQSLLNSGMRKSFLAWYQQKPGQSPKLLIYWASTRESGVPDRFTGSGSGTDFTLTISSVQAEDVAVYYCKQSYHLFTFGSGTKLEIKR , reported EC50: 0.12
